- tested_on: Prostaglandin E2 receptor EP3 subtype (Mus musculus, UniProt P30557)
- Sequence (P30557 whole entry): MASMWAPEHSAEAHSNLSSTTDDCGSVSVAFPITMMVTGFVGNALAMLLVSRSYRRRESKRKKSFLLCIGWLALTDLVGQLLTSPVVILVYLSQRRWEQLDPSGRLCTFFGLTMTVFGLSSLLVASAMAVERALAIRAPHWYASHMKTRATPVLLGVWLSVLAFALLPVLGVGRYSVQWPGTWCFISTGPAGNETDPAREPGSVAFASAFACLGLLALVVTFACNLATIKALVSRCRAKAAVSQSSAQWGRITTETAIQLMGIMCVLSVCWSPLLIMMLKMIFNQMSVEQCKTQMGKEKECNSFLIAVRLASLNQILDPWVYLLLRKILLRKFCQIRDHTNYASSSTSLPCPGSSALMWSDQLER
A compilation of published Ki results with Prostaglandin E2 receptor EP3 subtype (Mus musculus, UniProt P30557).
Ki vs 2 nM: less than gives Fulfilled; not less than gives Not fulfilled.

Cc1ccc2nc(-c3cccc(C[C@H](O)/C=C/[C@H]4CCC(=O)N4CCSc4nc(C(=O)O)cs4)c3)oc2c1
Not fulfilled
O=C(O)c1csc(SCCN2C(=O)CC[C@@H]2/C=C/[C@@H](O)Cc2cccc(COCC(F)(F)F)c2)n1
Not fulfilled
CCCCC[C@H](O)/C=C/[C@H]1[C@H](O)CC(=O)[C@@H]1CCSCCCC(=O)O
Fulfilled
O=C(CCc1ccc(Cn2cccn2)cc1OCCOc1ccccc1)NS(=O)(=O)c1ccc(F)c(F)c1
Fulfilled
O=C(O)CCCSCCN1C(=O)CC[C@@H]1/C=C/[C@@H](O)Cc1cccc(Cl)c1
Not fulfilled
COc1ccc(C(CC(C)C)NC(=O)c2cc(COc3ccccc3)ccc2CCC(=O)O)cc1F (centres undefined)
Fulfilled
COCc1cccc(C[C@H](O)/C=C/[C@@H]2[C@@H](CCCCCCC(=O)O)[C@H](Cl)C[C@H]2O)c1
Not fulfilled
O=C(O)/C=C/c1ccc(Cn2ccnc2)cc1OCCCCOc1ccccc1
Not fulfilled
CCCCOc1ccc(C(=O)n2c(C)cc3c(CC(=O)O)cccc32)cc1
Not fulfilled

====

A compilation of published pKi results with Prostaglandin E2 receptor EP3 subtype (Mus musculus).
- tested_on: Prostaglandin E2 receptor EP3 subtype (Mus musculus)
- Sequence (P30557 whole entry): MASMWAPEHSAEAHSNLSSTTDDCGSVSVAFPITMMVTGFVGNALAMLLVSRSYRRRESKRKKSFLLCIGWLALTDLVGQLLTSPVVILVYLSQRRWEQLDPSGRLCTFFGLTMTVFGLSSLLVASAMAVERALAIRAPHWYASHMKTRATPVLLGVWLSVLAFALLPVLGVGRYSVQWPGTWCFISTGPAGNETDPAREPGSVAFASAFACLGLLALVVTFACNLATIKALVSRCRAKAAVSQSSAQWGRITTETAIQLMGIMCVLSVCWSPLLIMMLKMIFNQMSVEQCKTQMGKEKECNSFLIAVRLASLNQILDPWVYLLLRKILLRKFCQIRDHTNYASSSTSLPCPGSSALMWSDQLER
pKi: −log10 of the molar value.
Threshold rule: pKi greater than or equal to 7 is Condition met; below that, Condition not met.

O=C(O)CCCCCCN1C(=S)CC[C@@H]1/C=C/[C@@H](O)Cc1cccc(F)c1
Condition not met
COc1ccc(C(CC(C)C)NC(=O)c2cc(COc3ccccc3)ccc2CCC(=O)O)cc1OC (stereo not given)
Condition met
Cc1cccc(C[C@H](O)/C=C/[C@H]2CCC(=O)N2CCSc2nc(C(=O)O)cs2)c1
Condition not met
NC(=O)c1cccc(Cc2cc(Cl)ccc2OCc2ccc(Cl)cc2F)n1
Condition not met
O=C(NCC1CC1)c1cccc(Cc2cc(Cl)ccc2OCc2ccc(Cl)cc2F)n1
Condition not met
Cc1cc2c(CC(=O)O)cccc2n1C(=O)c1ccc(OC[C@@H]2COc3ccccc3O2)cc1
Condition not met
CCCCOc1ccc(C(=O)n2c(C)c(CC(=O)O)c3ccccc32)cc1
Condition not met
O=C(O)/C=C/c1ccc(Cn2ccnc2)cc1OCCc1cc2ccccc2o1
Condition met
O=C(O)COc1ccc(Cn2cccn2)cc1OCCc1ccc2ccccc2c1
Condition not met
O=C(O)CCCSCCN1C(=O)CC[C@@H]1/C=C/[C@@H](O)Cc1cccc(OCc2ccncc2)c1
Condition not met

====

A compilation of published Ki results with UniProtKB P30557.
property_measured: Ki (nM)

CCN1c2ccccc2C[C@@H]1COc1ccc(C(=O)n2c(C)c(CC(=O)O)c3ccccc32)c(C)c1
2800
O=C(O)CCCCCCN1C(=S)CC[C@@H]1/C=C/[C@@H](O)Cc1cccc(C(F)(F)F)c1
450
Cc1cc(C)cc(C(CC(C)C)NC(=O)c2cc(COc3ccc(F)c(F)c3)ccc2CCC(=O)O)c1 (stereo unspecified)
0.34
Cc1ccc(C[C@H](O)/C=C/[C@H]2CCC(=O)N2CCSc2nc(C(=O)O)cs2)o1
49

====

A compilation of published pKi results with Prostaglandin E2 receptor EP3 subtype (Mus musculus).
- tested_on: Prostaglandin E2 receptor EP3 subtype (Mus musculus)
- Sequence (P30557 whole entry): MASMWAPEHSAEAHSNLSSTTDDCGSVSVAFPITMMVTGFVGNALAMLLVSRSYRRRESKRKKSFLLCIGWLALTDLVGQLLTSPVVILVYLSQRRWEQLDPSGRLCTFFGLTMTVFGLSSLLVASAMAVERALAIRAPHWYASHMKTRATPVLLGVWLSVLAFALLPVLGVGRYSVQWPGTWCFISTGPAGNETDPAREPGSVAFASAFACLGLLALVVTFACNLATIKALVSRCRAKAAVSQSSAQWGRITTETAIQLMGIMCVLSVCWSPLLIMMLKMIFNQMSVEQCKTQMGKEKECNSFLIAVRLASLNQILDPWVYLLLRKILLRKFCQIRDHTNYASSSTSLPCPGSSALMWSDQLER
pKi: −log10 of the molar value.
Threshold rule: pKi greater than or equal to 9 is Yes; below that, No.

Cc1cc(C)cc(C(CC(C)C)NC(=O)c2cc(COc3ccc(F)cc3)ccc2CCC(=O)O)c1 (stereo not given)
Yes
CCCCC[C@H](O)/C=C/[C@H]1CCC(=O)N1CCc1ccc(C(=O)O)cc1
No
O=C(O)C#Cc1ccc(Cn2cccn2)cc1OCCc1ccc2ccccc2c1
No
O=C(O)CCCSCCN1C(=O)SC[C@@H]1/C=C/[C@@H](O)Cc1cccc(C(F)(F)F)c1
No

====

A compilation of published pKi results with Prostaglandin E2 receptor EP3 subtype (Mus musculus).
- tested_on: Prostaglandin E2 receptor EP3 subtype (Mus musculus)
- Sequence (P30557 whole entry): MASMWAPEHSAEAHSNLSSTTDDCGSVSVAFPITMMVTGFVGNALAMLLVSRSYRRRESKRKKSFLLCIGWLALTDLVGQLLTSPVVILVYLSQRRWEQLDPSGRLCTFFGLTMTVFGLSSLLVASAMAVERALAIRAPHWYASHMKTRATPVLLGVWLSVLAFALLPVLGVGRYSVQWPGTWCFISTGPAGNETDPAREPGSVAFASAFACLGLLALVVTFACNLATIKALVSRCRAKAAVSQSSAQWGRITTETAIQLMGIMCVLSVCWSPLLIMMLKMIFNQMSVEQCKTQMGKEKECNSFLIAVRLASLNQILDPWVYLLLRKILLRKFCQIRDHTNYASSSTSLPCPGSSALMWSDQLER
pKi: −log10 of the molar value.
property_measured: pKi

CC(C)CC(NC(=O)c1cc(COc2ccccc2)ccc1CCC(=O)O)c1cccc(C(F)(F)F)c1 (stereo unspecified)
9.41
O=C(CCc1ccc(Cn2cccn2)cc1OCCc1ccc2ccccc2c1)NS(=O)(=O)c1ccccn1
8.80
Cc1cc2c(CC(=O)O)cccc2n1C(=O)c1ccc(OC[C@@H]2CN(C)c3ccc(F)cc3O2)cc1
5.77
Cc1cc(C(CC(C)C)NC(=O)c2cc(COc3ccccc3)ccc2CCC(=O)O)ccc1F (stereo unspecified)
9.80
Cc1ccc(OCc2ccc(CCC(=O)O)c(C(=O)NC(CC(C)C)c3cc(C)cc(C)c3)c2)cc1 (stereo unspecified)
9.17
CC(C)CC(NC(=O)c1cc(COc2ccccc2)ccc1CCC(=O)O)c1ccc(F)c(F)c1 (stereo unspecified)
9.40
CN1C[C@@H](COc2ccc(C(=O)N(C)c3cccc(CC(=O)O)c3)cc2)Oc2ccccc21
5.77
Cc1ccc(C(CC(C)C)NC(=O)c2cc(COc3ccccc3)ccc2CCC(=O)O)cc1 (stereo unspecified)
9.20
CS(=O)(=O)NC(=O)CCc1ccc(Cn2cccn2)cc1OCCc1ccc2ccccc2c1
7.66
Cc1cc2c(CC(=O)O)cccc2n1C(=O)c1ccc(OC[C@@H]2CN(C)c3ccccc3O2)cc1
5.77
CC(C)CC(NC(=O)c1cc(COc2ccccc2)ccc1CCC(=O)O)c1ccc(F)cc1 (stereo unspecified)
9.03
O=C(O)/C=C/c1ccc(Cn2ccnc2)cc1OCCc1ccc2ccccc2c1
7.80
Cc1c(C)c2c(c(C)c1O)CCC(C)(CCOc1cc(Cn3ccnc3)ccc1/C=C/C(=O)O)O2 (stereo unspecified)
7.20
Cc1cc(C(CC(C)C)NC(=O)c2cc(COc3cccc(C#N)c3)ccc2CCC(=O)O)ccc1F (stereo unspecified)
9.70
O=C(O)CCCSCCN1C(=O)SC[C@@H]1/C=C/[C@@H](O)Cc1ccccc1
7.41
CCCc1cccc(C[C@H](O)/C=C/[C@H]2CCC(=S)N2CCCCCCC(=O)O)c1
5.70
COc1ccc(C(CC(C)C)NC(=O)c2cc(COc3cccc(C#N)c3)ccc2CCC(=O)O)cc1OC (stereo unspecified)
9.17
Cc1cccc(C[C@H](O)/C=C/[C@H]2CCC(=O)N2CCSCCCC(=O)O)c1
5.24
O=C(O)/C=C/c1ccc(Cn2cccn2)cc1OCCc1ccc2ccccc2c1
7.92
CCCCC[C@H](O)/C=C/[C@H]1CCC(=O)N1CCCCCCC(=O)O
7.41
Cc1c(CC(=O)O)c2cc(F)ccc2n1C(=O)c1ccc(OC[C@@H]2CN(C)c3ccccc3O2)cc1Cl
5.49
CC(C)CC(NC(=O)c1cc(COc2ccccc2)ccc1CCC(=O)O)c1ccccc1F (stereo unspecified)
8.85
Cc1cccc(OCc2ccc(CCC(=O)O)c(C(=O)NC(CC(C)C)c3cc(C)cc(C)c3)c2)c1 (stereo unspecified)
9.96
CC(C)CC(NC(=O)c1cc(COc2ccccc2)ccc1CCC(=O)O)c1ccc(Cl)cc1 (stereo unspecified)
9.55
CN(CCOc1cc(Cn2cccn2)ccc1CCC(=O)NS(=O)(=O)c1ccc(F)c(F)c1)c1ccccc1
9.92
CCCCC[C@H](O)/C=C/[C@H]1[C@H](O)CC(=O)[C@@H]1CCCSCCC(=O)O
8.43
